# protocol_details: Pharmacokinetics after IV administration
# Assay type: in vivo, mouse
# conditions: mouse, plasma; male Swiss outbred mice; IV 5 mg/kg; read-out: Apparent t½ (converted)
experimental_endpoint: half-life (h)
One number for each entry, in h.

[ask] Suppose we examine the molecule Cc1ccc(/C=N/Nc2cc(N/N=C/c3ccc(C)cc3)nc(N)n2)cc1 ; what half-life value has been reported?
[reply] 2.4

----------
# protocol_details: Pharmacokinetics after IV administration
# Type: in vivo, mouse
# conditions: male, Swiss (outbred), mouse, plasma, iv, 5 mg/kg, male Swiss outbred mice, read-out: Plasma CL
experimental_endpoint: clearance (mL/min/kg)
One number for each entry, in mL/min/kg.

>>> df
                                   molecule  readout_value
0  Cc1ccc(/C=N/Nc2cc(N/N=C/c3ccc(C)cc3)nc(N)n2)cc1 [NCL195]           16.3

[ask] Suppose we examine the molecule Cl.N=C(NN=Cc1ccc(Cl)cc1)NN=Cc1ccc(Cl)cc1 [NCL812] ; what clearance value has been reported?
[reply] 9.5

----------
# protocol_details: Microsomal metabolic stability
# Type: in vitro ADME
# conditions: liver microsomes, pH 7.4; human; 0.4 μg/ml compound, 0.4 mg/ml protein, NADPH
experimental_endpoint: half-life at 0.4 μg/ml (min)
Answers are plain numbers, in min.

[ask] Suppose we examine the compound C/C(=N\NC(=N)N/N=C(\C)c1ccc(C(C)(C)C)cc1)c1ccc(C(C)(C)C)cc1 ; what half-life at 0.4 μg/ml value has been reported?
[reply] 18

----------
Kindly state MIC for each of the entries shown.
# Tested on: S. aureus
# protocol_details: MIC, broth micro-dilution (CLSI)
# Format: cell-based, Staphylococcus aureus
# conditions: Staphylococcus aureus, IRISH 1 – HA-EMRSA (ST8); absence of FBS; read-out: MIC
Give bare numbers, in µg/mL.

Some compounds with known MIC results, for comparison:
compound	tested_target	unit_of_measure	MIC
Cl.N=C(NN=Cc1ccc(Cl)cc1)NN=Cc1ccc(Cl)cc1 [NCL812]	S. aureus	µg/mL	2
Cc1ccc(/C=N/Nc2cc(N/N=C/c3ccc(C)cc3)nc(N)n2)cc1 [NCL195]	S. aureus	µg/mL	2

Lab note: next compound to report on.
[ask] Quick check: MIC on S. aureus, item CCCCCCCCCC(=O)N[C@@H](Cc1c[nH]c2ccccc12)C(=O)N[C@H](CC(N)=O)C(=O)N[C@@H](CC(=O)O)C(=O)N[C@@H]1C(=O)NCC(=O)N[C@@H](CCCN)C(=O)N[C@@H](CC(=O)O)C(=O)N[C@H](C)C(=O)N[C@@H](CC(=O)O)C(=O)NCC(=O)N[C@H](CO)C(=O)N[C@@H]([C@H](C)CC(=O)O)C(=O)N[C@@H](CC(=O)c2ccccc2N)C(=O)O[C@@H]1C [Daptomycin, daptomycin] ?
[reply] 0.5

----------
# protocol_details: Microsomal metabolic stability
# Assay type: in vitro ADME
# conditions: mouse, liver microsomes, pH 7.4; read-out: CLINT
experimental_endpoint: microsomal CLint at 0.4 μg/ml (µL/min/mg)
One number for each entry, in µL/min/mg.

[ask] Suppose we examine the compound C/C(=N\NC(=N)N/N=C(\C)c1ccc(C(C)(C)C)cc1)c1ccc(C(C)(C)C)cc1 [NCL219] ; what microsomal CLint at 0.4 μg/ml value has been reported?
[reply] 121

----------
# Test system: vancomycin-resistant enterococci (VRE)
# protocol_details: MIC, broth micro-dilution (CLSI)
# Assay type: cell-based, enterococci (porcine isolates)
# conditions: Enterococcus, VRE, VRE 6 (59 FR); absence of FBS
experimental_endpoint: MIC (µg/mL)
One number for each entry, in µg/mL.

Some molecules with known MIC results, for comparison:
molecule	unit_of_measure	readout_value
Cc1ccc(/C=N/Nc2cc(N/N=C/c3ccc(C)cc3)nc(N)n2)cc1 [NCL195]	µg/mL	4
Cl.N=C(NN=Cc1ccc(Cl)cc1)NN=Cc1ccc(Cl)cc1 [NCL812]	µg/mL	2
CC1(C)S[C@@H]2[C@H](NC(=O)[C@H](N)c3ccccc3)C(=O)N2[C@H]1C(=O)O [Ampicillin]	µg/mL	2
C/C(=N\NC(=N)N/N=C(\C)c1ccc(C(C)(C)C)cc1)c1ccc(C(C)(C)C)cc1 [NCL219]	µg/mL	2

Lab note: next molecule to report on.
[ask] Suppose we examine the molecule CCCCCCCCCC(=O)N[C@@H](Cc1c[nH]c2ccccc12)C(=O)N[C@H](CC(N)=O)C(=O)N[C@@H](CC(=O)O)C(=O)N[C@@H]1C(=O)NCC(=O)N[C@@H](CCCN)C(=O)N[C@@H](CC(=O)O)C(=O)N[C@H](C)C(=O)N[C@@H](CC(=O)O)C(=O)NCC(=O)N[C@H](CO)C(=O)N[C@@H]([C@H](C)CC(=O)O)C(=O)N[C@@H](CC(=O)c2ccccc2N)C(=O)O[C@@H]1C [Daptomycin, daptomycin] ; what MIC value has been reported?
[reply] 2

----------
Kindly state MIC for each of the entries shown.
# Tested on: vancomycin-resistant enterococci (VRE)
# protocol_details: MIC, broth micro-dilution (CLSI)
# Type: cell-based, enterococci (porcine isolates)
# conditions: Enterococcus, VRE, VRE 8 (277 G); absence of FBS
Please state the number and follow it with the unit.

query_smiles	tested_target	MIC
CCCCCCCCCC(=O)N[C@@H](Cc1c[nH]c2ccccc12)C(=O)N[C@H](CC(N)=O)C(=O)N[C@@H](CC(=O)O)C(=O)N[C@@H]1C(=O)NCC(=O)N[C@@H](CCCN)C(=O)N[C@@H](CC(=O)O)C(=O)N[C@H](C)C(=O)N[C@@H](CC(=O)O)C(=O)NCC(=O)N[C@H](CO)C(=O)N[C@@H]([C@H](C)CC(=O)O)C(=O)N[C@@H](CC(=O)c2ccccc2N)C(=O)O[C@@H]1C	vancomycin-resistant enterococci (VRE)	0.5 µg/mL
Cc1ccc(/C=N/Nc2cc(N/N=C/c3ccc(C)cc3)nc(N)n2)cc1	vancomycin-resistant enterococci (VRE)	4 µg/mL
CC1(C)S[C@@H]2[C@H](NC(=O)[C@H](N)c3ccccc3)C(=O)N2[C@H]1C(=O)O	vancomycin-resistant enterococci (VRE)	2 µg/mL
Cl.N=C(NN=Cc1ccc(Cl)cc1)NN=Cc1ccc(Cl)cc1	vancomycin-resistant enterococci (VRE)	2 µg/mL

[ask] Suppose we examine the molecule C/C(=N\NC(=N)N/N=C(\C)c1ccc(C(C)(C)C)cc1)c1ccc(C(C)(C)C)cc1 ; what MIC value has been reported?
[reply] 1 µg/mL

----------
# System: S. pneumoniae
# protocol_details: MIC, broth micro-dilution (CLSI)
# Assay type: cell-based, Streptococcus pneumoniae
# conditions: Streptococcus pneumoniae, P9 (serotype 6A); 5% FBS
experimental_endpoint: MIC (µg/mL)
One number for each entry, in µg/mL.

Some molecules with known MIC results, for comparison:
molecule	unit_of_measure	readout_value
Cl.N=C(NN=Cc1ccc(Cl)cc1)NN=Cc1ccc(Cl)cc1 [NCL812]	µg/mL	4
CC1(C)S[C@@H]2[C@H](NC(=O)[C@H](N)c3ccccc3)C(=O)N2[C@H]1C(=O)O [Ampicillin]	µg/mL	0.06
CCCCCCCCCC(=O)N[C@@H](Cc1c[nH]c2ccccc12)C(=O)N[C@H](CC(N)=O)C(=O)N[C@@H](CC(=O)O)C(=O)N[C@@H]1C(=O)NCC(=O)N[C@@H](CCCN)C(=O)N[C@@H](CC(=O)O)C(=O)N[C@H](C)C(=O)N[C@@H](CC(=O)O)C(=O)NCC(=O)N[C@H](CO)C(=O)N[C@@H]([C@H](C)CC(=O)O)C(=O)N[C@@H](CC(=O)c2ccccc2N)C(=O)O[C@@H]1C [Daptomycin, daptomycin]	µg/mL	0.25
Cc1ccc(/C=N/Nc2cc(N/N=C/c3ccc(C)cc3)nc(N)n2)cc1 [NCL195]	µg/mL	8

Lab note: next molecule to report on.
[ask] Quick check: MIC on S. pneumoniae, item C/C(=N\NC(=N)N/N=C(\C)c1ccc(C(C)(C)C)cc1)c1ccc(C(C)(C)C)cc1 [NCL219] ?
[reply] 4

----------
# Test system: S. aureus
# protocol_details: MIC, broth micro-dilution (CLSI)
# Type: cell-based, Staphylococcus aureus
# conditions: Staphylococcus aureus, UK 15 – HA-EMRSA (ST22); absence of FBS; read-out: MIC
Kindly state MIC for each of the entries shown.
Answers are plain numbers, in µg/mL.

compound	MIC / µg/mL
C/C(=N\NC(=N)N/N=C(\C)c1ccc(C(C)(C)C)cc1)c1ccc(C(C)(C)C)cc1 [NCL219]	64
CCCCCCCCCC(=O)N[C@@H](Cc1c[nH]c2ccccc12)C(=O)N[C@H](CC(N)=O)C(=O)N[C@@H](CC(=O)O)C(=O)N[C@@H]1C(=O)NCC(=O)N[C@@H](CCCN)C(=O)N[C@@H](CC(=O)O)C(=O)N[C@H](C)C(=O)N[C@@H](CC(=O)O)C(=O)NCC(=O)N[C@H](CO)C(=O)N[C@@H]([C@H](C)CC(=O)O)C(=O)N[C@@H](CC(=O)c2ccccc2N)C(=O)O[C@@H]1C [Daptomycin, daptomycin]	0.5
Cc1ccc(/C=N/Nc2cc(N/N=C/c3ccc(C)cc3)nc(N)n2)cc1 [NCL195]	2

Lab note: next compound to report on.
[ask] Suppose we examine the compound Cl.N=C(NN=Cc1ccc(Cl)cc1)NN=Cc1ccc(Cl)cc1 [NCL812] ; what MIC value has been reported?
[reply] 4
